inhibition by entry:
system: Integrin alpha-4/beta-7 (Mus musculus) (UniProt Q00651+P26011)
assay notes: Inhibition of integrin alpha4 beta7 receptor in mouse TK1 cells assessed as inhibition of Mn2+-activated cell adhesion to mouse MAdCAM-1-Fc at 100 uM after 1 hr using methylene blue staining relative to biotin-r9YDRREY
Format: cell-based
Residues, ends and D or L forms follow the SMILES beside them. *: point of attachment. X6 = CC(=O)OC[C@@H]1O[C@H](n2cc(C*)nn2)[C@@H](OC(C)=O)[C@H](OC(C)=O)[C@@H]1OC(C)=O; X2 = OC[C@@H]1O[C@H](n2cc(C*)nn2)[C@@H](O)[C@H](O)[C@@H]1O; Biotin = O=C1N[C@H]2[C@H](CS[C@H]2CCCCC(=O)*)N1
Response body: numeric value in %, unit text excluded.

**Q:** Fill in the blank: the reported inhibition of N=C(N)NCCC[C@H](NC(=O)CCCC[C@@H]1SC[C@@H]2NC(=O)N[C@@H]21)C(=O)N[C@@H](CCCNC(=N)N)C(=O)N[C@@H](CCCNC(=N)N)C(=O)N[C@@H](CCCNC(=N)N)C(=O)N[C@@H](CCCNC(=N)N)C(=O)N[C@@H](CCCNC(=N)N)C(=O)N[C@@H](CCCNC(=N)N)C(=O)N[C@@H](CCCNC(=N)N)C(=O)N[C@@H](CCC(=O)O)C(=O)N[C@@H](CCCNC(=N)N)C(=O)N[C@@H](Cc1ccc(OCc2cn([C@H]3O[C@@H](CO)[C@@H](O)[C@@H](O)[C@@H]3O)nn2)cc1)C(=O)O (Biotin-RRRRRRRRERY(X2)-OH) is ____.
**A:** 62.7

**Q:** For the compound shown here, CC(=O)OC[C@@H]1O[C@H](n2cc(COc3ccc(C[C@H](NC(=O)[C@H](CCCNC(=N)N)NC(=O)[C@H](CCC(=O)O)NC(=O)[C@H](CCCNC(=N)N)NC(=O)[C@H](CCCNC(=N)N)NC(=O)[C@H](CCCNC(=N)N)NC(=O)[C@H](CCCNC(=N)N)NC(=O)[C@H](CCCNC(=N)N)NC(=O)[C@H](CCCNC(=N)N)NC(=O)[C@H](CCCNC(=N)N)NC(=O)[C@H](CCCNC(=N)N)NC(=O)CCCC[C@@H]4SC[C@@H]5NC(=O)N[C@@H]54)C(=O)O)cc3)nn2)[C@@H](OC(C)=O)[C@H](OC(C)=O)[C@@H]1OC(C)=O (Biotin-RRRRRRRRERY(X6)-OH) , give the reported inhibition.
**A:** 52.5
